# Species: Rattus norvegicus
# Experimental Parameters: dose 1 mg/kg; route oral
Readout Name: Duration

>>> print(df.to_string())
                            chemical_smiles  assay_value
0  CCCCCN(C(=O)c1ccccc1)c1ccc2ncn(Cc3ccc(-c4ccccc4-c4nnnn4C)cc3)c(=O)c2c1         >3 h
1  CCCCN(C(=O)c1ccc(OP(=O)([O-])[O-])cc1)c1ccc2ncn(Cc3ccc(-c4ccccc4-c4nnnn4C)cc3)c(=O)c2c1.[Na+].[Na+]         <3 h
2  CCCCC(=O)N(Cc1ccccc1)c1ccc2ncn(Cc3ccc(-c4ccccc4-c4nnnn4C)cc3)c(=O)c2c1         >3 h
3  Cn1nnnc1-c1ccccc1-c1ccc(Cn2cnc3ccc(N(Cc4ccccn4)C(=O)c4ccncc4)cc3c2=O)cc1         <3 h
4  Cn1nnnc1-c1ccccc1-c1ccc(Cn2cnc3ccc(N(Cc4cccnc4)C(=O)c4ccccc4)cc3c2=O)cc1         >3 h
5  Cn1nnnc1-c1ccccc1-c1ccc(Cn2cnc3ccc(N(Cc4ccccn4)C(=O)c4ccco4)cc3c2=O)cc1         <3 h

* * *

# Target Under Test: Angiotensin II receptor (Rattus norvegicus) (UniProt P29089+P25095+P35351)
# Assay Notes: Ratio of receptor binding affinity AT2/AT1 in rat adrenal tissue
Recorded Ratio, one value per entry.
Readout Name: Ratio

In [3]: df
Out[3]:
                            chemical_smiles  assay_value
0  Cn1nnnc1-c1ccccc1-c1ccc(Cn2cnc3ccc(N(Cc4cccnc4)C(=O)c4ccccc4)cc3c2=O)cc1          2.1
1  Cn1nnnc1-c1ccccc1-c1ccc(Cn2cnc3ccc(N(Cc4ccccc4)C(=O)c4ccccc4)cc3c2=O)cc1          0.1
2  CCCCN(C(=O)c1ccc(OP(=O)([O-])[O-])cc1)c1ccc2ncn(Cc3ccc(-c4ccccc4-c4nnnn4C)cc3)c(=O)c2c1.[Na+].[Na+]          5.4

* * *

Examples of compounds with documented logP follow.
# Assay Notes: physchem
# Experimental Parameters: octanol/water
# Description: Partition coefficient (logP)
Readout Name: logP

>>> print(df.to_string())
                             chemical_smiles  assay_value
 0  CCCCCN(C(=O)c1ccccc1OC)c1ccc2ncn(Cc3ccc(-c4ccccc4-c4nnnn4C)cc3)c(=O)c2c1            5
 1  Cn1nnnc1-c1ccccc1-c1ccc(Cn2cnc3ccc(N(Cc4ccc(C(=O)O)cc4)C(=O)c4ccccc4)cc3c2=O)cc1          2.4
 2  CCCCCN(C(=O)c1ccc(S(C)(=O)=O)cc1)c1ccc2ncn(Cc3ccc(-c4ccccc4-c4nnnn4C)cc3)c(=O)c2c1          4.4
 3  Cn1nnnc1-c1ccccc1-c1ccc(Cn2cnc3ccc(N(Cc4ccccc4)C(=O)c4ccccc4)cc3c2=O)cc1          4.5
 4  COCCOCCN(C(=O)c1ccccc1)c1ccc2ncn(Cc3ccc(-c4ccccc4-c4nnnn4C)cc3)c(=O)c2c1          3.6
 5  CCCCCN(C(=O)c1cccnc1)c1ccc2ncn(Cc3ccc(-c4ccccc4-c4nnnn4C)cc3)c(=O)c2c1          4.3
 6  Cn1nnnc1-c1ccccc1-c1ccc(Cn2cnc3ccc(N(Cc4ccncc4)C(=O)c4ccccc4)cc3c2=O)cc1          3.4
 7  CCCN(C(=O)c1ccc(F)cc1)c1ccc2ncn(Cc3ccc(-c4ccccc4-c4nnnn4C)cc3)c(=O)c2c1          4.3
 8  CCOCCN(C(=O)c1ccccc1)c1ccc2ncn(Cc3ccc(-c4ccccc4-c4nnnn4C)cc3)c(=O)c2c1          3.9
 9  CCCCN(C(=O)c1ccc(O)cc1)c1ccc2ncn(Cc3ccc(-c4ccccc4-c4nnnn4C)cc3)c(=O)c2c1          4.2
10  Cn1nnnc1-c1ccccc1-c1ccc(Cn2cnc3ccc(N(CCCC(=O)O)C(=O)c4ccccc4)cc3c2=O)cc1          2.3
11  CCCCCN(C(=O)c1ccc(O)cc1)c1ccc2ncn(Cc3ccc(-c4ccccc4-c4nnnn4C)cc3)c(=O)c2c1          4.7
12  CCCCN(C(=O)c1ccc(F)cc1)c1ccc2ncn(Cc3ccc(-c4ccccc4-c4nnnn4C)cc3)c(=O)c2c1          4.7
13  CCCCN(C(=O)c1ccc(OP(=O)([O-])[O-])cc1)c1ccc2ncn(Cc3ccc(-c4ccccc4-c4nnnn4C)cc3)c(=O)c2c1.[Na+].[Na+]          2.9
14  Cn1nnnc1-c1ccccc1-c1ccc(Cn2cnc3ccc(N(Cc4ccccn4)C(=O)c4ccncc4)cc3c2=O)cc1          2.7

// data source = ChEMBL document CHEMBL1128754
